System: Enterobacter cloacae OMNF 1153

>  <SMILES DATA>
Nc1cc2c(=O)c(C(=O)O)cn(-c3ccc(F)cc3)c2cc1N1CCc2ccccc2C1

>  <ASSAYED TARGET>
Enterobacter cloacae OMNF 1153

>  <UNIT OF MEASUREMENT>
µg/mL

>  <MIC>
8

$$$$
>  <SMILES DATA>
Cc1c(N2CCN(C)CC2)c(N)cc2c(=O)c(C(=O)O)cn(C3CC3)c12

>  <ASSAYED TARGET>
Enterobacter cloacae OMNF 1153

>  <UNIT OF MEASUREMENT>
µg/mL

>  <MIC>
0.25

$$$$
>  <SMILES DATA>
Nc1cc2c(=O)c(C(=O)O)cn(C3CC3)c2cc1N1CCNCC1

>  <ASSAYED TARGET>
Enterobacter cloacae OMNF 1153

>  <UNIT OF MEASUREMENT>
µg/mL

>  <MIC>
0.5

$$$$
>  <SMILES DATA>
CN1CCN(c2c(N)cc3c(=O)c(C(=O)O)cn(C4CC4)c3c2F)CC1

>  <ASSAYED TARGET>
Enterobacter cloacae OMNF 1153

>  <UNIT OF MEASUREMENT>
µg/mL

>  <MIC>
0.25

$$$$
>  <SMILES DATA>
Nc1cc2c(=O)c(C(=O)O)cn(C3CC3)c2cc1N1CCCC1

>  <ASSAYED TARGET>
Enterobacter cloacae OMNF 1153

>  <UNIT OF MEASUREMENT>
µg/mL

>  <MIC>
16

$$$$
>  <SMILES DATA>
CN1CCN(c2cc3c(cc2N)c(=O)c(C(=O)O)cn3C(C)(C)C)CC1

>  <ASSAYED TARGET>
Enterobacter cloacae OMNF 1153

>  <UNIT OF MEASUREMENT>
µg/mL

>  <MIC>
2

$$$$

* * *

Measured log10 MIC, listed per entry for reference.
Test system: Pseudomonas aeruginosa CNUR 2
Test: MIC test, agar dilution with Steers multiwell inoculator
Format: cell-based
Conditions: CNUR2, TSA dishes, 24 h at 35°C, read-out: Minimum Inhibiting Concentration
OBSERVABLE: log10 MIC (log10 of the value in µg/mL)

>  <MOLECULE>
Nc1cc2c(=O)c(C(=O)O)cn(C3CC3)c2cc1N1CCCC1 [Compound 10]

>  <VAL>
2.11

$$$$
>  <MOLECULE>
Nc1cc2c(=O)c(C(=O)O)cn(C3CC3)c2cc1N1CCSCC1 [Compound 15]

>  <VAL>
1.20

$$$$
>  <MOLECULE>
CC(C)(C)n1cc(C(=O)O)c(=O)c2cc(N)c(N3CCSCC3)cc21 [Compound 46]

>  <VAL>
1.20

$$$$
>  <MOLECULE>
CN1CCN(c2cc3c(cc2N)c(=O)c(C(=O)O)cn3C2CC2)CC1 [Compound 8]

>  <VAL>
1.20

$$$$
>  <MOLECULE>
Nc1cc2c(=O)c(C(=O)O)cn(C3CC3)c2cc1N1CCC(O)CC1 [Compound 16]

>  <VAL>
2.11

$$$$
>  <MOLECULE>
Nc1cc2c(=O)c(C(=O)O)cn(C3CC3)c2c(F)c1N1CCSCC1 [Compound 23]

>  <VAL>
0.90

$$$$
>  <MOLECULE>
Cc1c(N2CCN(C)CC2)c(N)cc2c(=O)c(C(=O)O)cn(C3CC3)c12 [Compound 33]

>  <VAL>
0.90

$$$$
>  <MOLECULE>
Nc1cc2c(=O)c(C(=O)O)cn(-c3ccc(F)cc3)c2cc1N1CCSCC1 [Compound 51]

>  <VAL>
2.11

$$$$
>  <MOLECULE>
CC(C)(C)n1cc(C(=O)O)c(=O)c2cc(N)c(N3CCc4ccccc4C3)cc21 [Compound 47]

>  <VAL>
1.81

$$$$
>  <MOLECULE>
CC1CN(c2cc3c(cc2N)c(=O)c(C(=O)O)cn3C2CC2)CCN1 (stereo not shown) [Compound 14]

>  <VAL>
0.60

$$$$
>  <MOLECULE>
Nc1cc2c(=O)c(C(=O)O)cn(-c3ccc(F)cc3)c2cc1N1CCc2ccccc2C1 [Compound 52]

>  <VAL>
2.11

$$$$
>  <MOLECULE>
Cc1c(N2CCNCC2)c(N)cc2c(=O)c(C(=O)O)cn(C3CC3)c12 [Compound 34]

>  <VAL>
1.20

$$$$
>  <MOLECULE>
Cc1c(N2CCc3ccccc3C2)c(N)cc2c(=O)c(C(=O)O)cn(C3CC3)c12 [Compound 36]

>  <VAL>
0.90

$$$$
>  <MOLECULE>
CN1CCN(c2nc3c(cc2N)c(=O)c(C(=O)O)cn3C2CC2)CC1 [Compound 40]

>  <VAL>
0.60

$$$$
>  <MOLECULE>
CN1CCN(c2nc3c(c(N)c2N)c(=O)c(C(=O)O)cn3C2CC2)CC1 [Compound 42]

>  <VAL>
1.20

$$$$
>  <MOLECULE>
CN1CCN(c2cc3c(cc2N)c(=O)c(C(=O)O)cn3-c2ccc(F)cc2)CC1 [Compound 50]

>  <VAL>
1.51

$$$$
